Reported inhibition of growth at 10 µM values are given for each entry in this list.
- Tested on: PC-3
- method notes: Cytotoxicity against human PC3 cells at 10 uM after 48 hrs by coulter counter analysis
- Assay type: functional
- measurement setup: PC-3, 48 h, read-out: GI
Write the number in % without appending the unit.

{"record smiles": "Cc1ccc2nc(Sc3cnc(N)s3)n(-c3ccccc3)c(=O)c2c1", "inhibition of growth at 10 µM / %": 10.1}
{"record smiles": "Cc1ccc2nc(Sc3ncccc3C(=O)O)n(Cc3ccccc3)c(=O)c2c1", "inhibition of growth at 10 µM / %": 32.8}
{"record smiles": "COc1cc2nc(Sc3cnc(N)s3)n(-c3ccccc3)c(=O)c2cc1OC", "inhibition of growth at 10 µM / %": 12}

*Q* Which inhibition of growth at 10 µM is reported for this compound? Nc1ncc(Sc2nc3ccc(Cl)cc3c(=O)n2-c2ccccc2)s1
*A* 10.2

*Q* Try COc1cc2nc(Sc3cnc(N)s3)n(Cc3ccccc3)c(=O)c2cc1OC next.
*A* 22.4

*Q* Try Cc1ccc2nc(Sc3cnc(N)s3)n(Cc3ccccc3)c(=O)c2c1 next.
*A* 22.6

*Q* Try Cc1ccc2nc(Sc3ncccc3C(=O)O)n(-c3ccccc3)c(=O)c2c1 next.
*A* 11.7

*Q* Try Nc1ncc(Sc2nc3ccc(Cl)cc3c(=O)n2Cc2ccccc2)s1 next.
*A* 28.2

*Q* Try O=C(O)c1cccnc1Sc1nc2ccc(Cl)cc2c(=O)n1Cc1ccccc1 next.
*A* 25.2

====

Reported inhibition of growth at 10 µM values are given for each entry in this list.
- Test system: UACC-62
- method notes: Cytotoxicity against human UACC62 cells at 10 uM after 48 hrs by coulter counter analysis
- Type: functional
- measurement setup: UACC-62, 48 h, read-out: GI
Write the number in % without appending the unit.

{"record smiles": "Cc1ccc2nc(Sc3cnc(N)s3)n(Cc3ccccc3)c(=O)c2c1", "data value": 12.2}

*Q* Which inhibition of growth at 10 µM is reported for this molecule? Cc1ccc2nc(Sc3ncccc3C(=O)O)n(Cc3ccccc3)c(=O)c2c1
*A* 30.4

*Q* Try Nc1ncc(Sc2nc3ccc(Cl)cc3c(=O)n2Cc2ccccc2)s1 next.
*A* 14.4

*Q* Try O=C(O)c1cccnc1Sc1nc2ccc(Cl)cc2c(=O)n1Cc1ccccc1 next.
*A* 16.7

*Q* Try COc1cc2nc(Sc3ncccc3C(=O)O)n(Cc3ccccc3)c(=O)c2cc1OC next.
*A* 11.6

====

- Tested on: Escherichia coli
- method notes: Antimicrobial activity against Escherichia coli after 24 hrs by micro-dilution susceptibility method
Reported MIC values are given for each entry in this list.
Write the number in µg/mL without appending the unit.

{"molecule": "CC(=O)NS(=O)(=O)c1ccc(N)cc1 [SULFACETAMIDE]", "system tested": "Escherichia coli", "data value": 1}

*Q* Which MIC is reported for this molecule? CCOC(=O)c1nc(N)sc1Sc1nc2ccc(C)cc2c(=O)n1Cc1ccccc1
*A* 2

*Q* Try COc1cc2nc(Sc3ncccc3C(=O)O)n(-c3ccccc3)c(=O)c2cc1OC next.
*A* 2

*Q* Try CCOC(=O)c1nc(N)sc1Sc1nc2ccc(C)cc2c(=O)n1-c1ccccc1 next.
*A* 4

*Q* Try CCOC(=O)c1nc(N)sc1Sc1nc2ccc(Cl)cc2c(=O)n1Cc1ccccc1 next.
*A* 4

*Q* Try COc1cc2nc(Sc3ncccc3C(=O)O)n(Cc3ccccc3)c(=O)c2cc1OC next.
*A* 4

*Q* Try COc1cc2nc(Sc3cc([N+](=O)[O-])ccc3C(=O)O)n(-c3ccccc3)c(=O)c2cc1OC next.
*A* 2

*Q* Try COc1cc2nc(Sc3cnc(N)s3)n(-c3ccccc3)c(=O)c2cc1OC next.
*A* 4

====

- System: Pseudomonas aeruginosa
- method notes: Antimicrobial activity against Pseudomonas aeruginosa at 200 ug after 24 hrs by agar disc diffusion method
- Type: functional
- measurement setup: read-out: DIZ
measurement type: zone of inhibition at 200 µg/disc (mm)
Write the number in mm without appending the unit.

{"record smiles": "Cc1ccc2nc(Sc3cnc(N)s3)n(-c3ccccc3)c(=O)c2c1", "units": "mm", "zone of inhibition at 200 µg/disc": 8}

*Q* Which zone of inhibition at 200 µg/disc is reported for this compound? COc1cc2nc(Sc3cc([N+](=O)[O-])ccc3C(=O)O)n(-c3ccccc3)c(=O)c2cc1OC
*A* 8

*Q* Try COc1cc2nc(Sc3cc([N+](=O)[O-])ccc3C(=O)O)n(Cc3ccccc3)c(=O)c2cc1OC next.
*A* 8

====

Reported zone of inhibition at 200 µg/disc values are given for each entry in this list.
- Test system: Escherichia coli
- method notes: Antimicrobial activity against Escherichia coli at 200 ug after 24 hrs by agar disc diffusion method
- Format: functional
- measurement setup: read-out: DIZ

Record excerpt, results attached:
{"record smiles": "CCOC(=O)c1nc(N)sc1Sc1nc2ccc(Cl)cc2c(=O)n1Cc1ccccc1", "data value": "20 mm"}
{"record smiles": "CCOC(=O)c1nc(N)sc1Sc1nc2cc(OC)c(OC)cc2c(=O)n1Cc1ccccc1", "data value": "8 mm"}
{"record smiles": "COc1cc2nc(Sc3cnc(N)s3)n(Cc3ccccc3)c(=O)c2cc1OC", "data value": "16 mm"}
{"record smiles": "COc1cc2nc(Sc3cc([N+](=O)[O-])ccc3C(=O)O)n(Cc3ccccc3)c(=O)c2cc1OC", "data value": "8 mm"}

Kindly review the next compound as well.
*Q* Which zone of inhibition at 200 µg/disc is reported for this compound? O=C(O)c1cccnc1Sc1nc2ccc(Cl)cc2c(=O)n1Cc1ccccc1
*A* 8 mm

====

- Tested on: SR
- method notes: Cytotoxicity against human SR cells at 10 uM after 48 hrs by coulter counter analysis
- Type: functional
- measurement setup: read-out: GI
Reported inhibition of growth at 10 µM values are given for each entry in this list.

Record excerpt, results attached:
{"record smiles": "O=C(O)c1cccnc1Sc1nc2ccc(Cl)cc2c(=O)n1-c1ccccc1", "inhibition of growth at 10 µM": "< 10%"}
{"record smiles": "Cc1ccc2nc(Sc3cnc(N)s3)n(Cc3ccccc3)c(=O)c2c1", "inhibition of growth at 10 µM": "< 10%"}

*Q* Which inhibition of growth at 10 µM is reported for this compound? Nc1ncc(Sc2nc3ccc(Cl)cc3c(=O)n2Cc2ccccc2)s1
*A* < 10%

====

- Test system: Micrococcus luteus
- method notes: Antimicrobial activity against Micrococcus luteus at 200 ug after 24 hrs by agar disc diffusion method
- Format: functional
- measurement setup: read-out: DIZ
Reported zone of inhibition at 200 µg/disc values are given for each entry in this list.
Write the number in mm without appending the unit.

Record excerpt, results attached:
{"record smiles": "COc1cc2nc(Sc3ncccc3C(=O)O)n(Cc3ccccc3)c(=O)c2cc1OC", "system tested": "Micrococcus luteus", "units": "mm", "zone of inhibition at 200 µg/disc": 15}
{"record smiles": "O=C(O)c1ccc([N+](=O)[O-])cc1Sc1nc2ccc(Cl)cc2c(=O)n1Cc1ccccc1", "system tested": "Micrococcus luteus", "units": "mm", "zone of inhibition at 200 µg/disc": 8}
{"record smiles": "COc1cc2nc(Sc3ncccc3C(=O)O)n(-c3ccccc3)c(=O)c2cc1OC", "system tested": "Micrococcus luteus", "units": "mm", "zone of inhibition at 200 µg/disc": 15}
{"record smiles": "COc1cc2nc(Sc3cnc(N)s3)n(Cc3ccccc3)c(=O)c2cc1OC", "system tested": "Micrococcus luteus", "units": "mm", "zone of inhibition at 200 µg/disc": 8}
{"record smiles": "CCOC(=O)c1nc(N)sc1Sc1nc2ccc(C)cc2c(=O)n1-c1ccccc1", "system tested": "Micrococcus luteus", "units": "mm", "zone of inhibition at 200 µg/disc": 14}
{"record smiles": "COc1cc2nc(Sc3cc([N+](=O)[O-])ccc3C(=O)O)n(-c3ccccc3)c(=O)c2cc1OC", "system tested": "Micrococcus luteus", "units": "mm", "zone of inhibition at 200 µg/disc": 8}
{"record smiles": "CCOC(=O)c1nc(N)sc1Sc1nc2cc(OC)c(OC)cc2c(=O)n1Cc1ccccc1", "system tested": "Micrococcus luteus", "units": "mm", "zone of inhibition at 200 µg/disc": 8}
{"record smiles": "CCOC(=O)c1nc(N)sc1Sc1nc2cc(OC)c(OC)cc2c(=O)n1-c1ccccc1", "system tested": "Micrococcus luteus", "units": "mm", "zone of inhibition at 200 µg/disc": 8}
{"record smiles": "Cc1ccc2nc(Sc3cc([N+](=O)[O-])ccc3C(=O)O)n(-c3ccccc3)c(=O)c2c1", "system tested": "Micrococcus luteus", "units": "mm", "zone of inhibition at 200 µg/disc": 8}
{"record smiles": "Cc1ccc2nc(Sc3cc([N+](=O)[O-])ccc3C(=O)O)n(Cc3ccccc3)c(=O)c2c1", "system tested": "Micrococcus luteus", "units": "mm", "zone of inhibition at 200 µg/disc": 8}

*Q* Which zone of inhibition at 200 µg/disc is reported for this compound? O=C(O)c1cccnc1Sc1nc2ccc(Cl)cc2c(=O)n1-c1ccccc1
*A* 8

*Q* Try O=C(O)c1cccnc1Sc1nc2ccc(Cl)cc2c(=O)n1Cc1ccccc1 next.
*A* 8

*Q* Try Cc1ccc2nc(Sc3ncccc3C(=O)O)n(-c3ccccc3)c(=O)c2c1 next.
*A* 14

*Q* Try CCOC(=O)c1nc(N)sc1Sc1nc2ccc(C)cc2c(=O)n1Cc1ccccc1 next.
*A* 20
